Biological target: SyGlnB (PII) in complex with SyBCCP (Synechocystis sp. PCC 6803, UniProt Q55247)
Sequence (Q55247 whole entry): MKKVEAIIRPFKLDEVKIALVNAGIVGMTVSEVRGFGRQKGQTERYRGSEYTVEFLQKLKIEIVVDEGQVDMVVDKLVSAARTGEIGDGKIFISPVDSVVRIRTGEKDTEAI
Sequence (Q55120 1-154 partner): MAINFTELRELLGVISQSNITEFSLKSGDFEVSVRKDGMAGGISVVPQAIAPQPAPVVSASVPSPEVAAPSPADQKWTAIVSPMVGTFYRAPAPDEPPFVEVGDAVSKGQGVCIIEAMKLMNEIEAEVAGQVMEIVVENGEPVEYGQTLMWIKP
Assay: pull-down of GlnB with His-BCCP on Ni-NTA magnetic beads, SDS-PAGE densitometry, 2-OG titration
Assay type: binding
Design: gene glnB; GlnB C-terminally Strep-tagged (pASK-IBA3glnBSc); bait His-tagged BCCP (pET15accB), biotinylated with E. coli BirA; both expressed in E. coli and purified; GlnB homotrimer; with Biotin carboxyl carrier protein of acetyl-CoA carboxylase
Settings: read-out: apparent IC50
VALUE_TYPE: IC50 (µM)
# unit: µM | format: bare number

Q) Entry O=C(O)CCC(=O)C(=O)O [2-OG] has what IC50?
A) 41.3

Reference source: paper PMC5080355
